Documented melting point across a set of molecules
Report only the number, with the unit °C understood.

Recorded results for 10 molecules are shown here.
CCc1cc2ccc(C(C)(C#N)Cc3ccc(OCCCN4CCOCC4)c(C#N)c3)cc2[nH]c1=O (centres unmarked)
153
CCc1cc2ccc(C(C)(C#N)Cc3cccc(I)n3)cc2[nH]c1=O (centres unmarked)
131
CCc1cc2ccc(C(C)(C#N)Cc3cccc(-c4cnn(C)c4)c3)cc2[nH]c1=O (centres unmarked)
170
CCc1cc2ccc(C(C)(C#N)Cc3cccc(/C=N/OC)c3)cc2[nH]c1=O (centres unmarked)
170
CCc1cc2ccc(C(C)(C#N)Cc3cccc(CCS(C)(=O)=O)c3)cc2[nH]c1=O (centres unmarked)
150
C#Cc1cccc(C[C@@](C)(C#N)c2ccc3cc(CC)c(=O)[nH]c3c2)c1
128
CCOC(=O)c1cccc(CC(C)(C#N)c2ccc3cc(CC)c(=O)[nH]c3c2)n1 (centres unmarked)
60
CCc1cc2ccc(C(C)(C#N)Cc3nc(N(C)C)cc(N(C)C)n3)cc2[nH]c1=O (centres unmarked)
194
CCc1cc2ccc(C(F)(C#N)Cc3ccccc3)cc2[nH]c1=O (centres unmarked)
176
CCc1cc2ccc(C(C)(C#N)Cc3cccc(C#N)n3)cc2[nH]c1=O (single isomer, unassigned) [Compound 206]
121

melting point reading for CCc1cc2ccc(C(C)(C#N)Cc3cccc(N(C)CCc4ccccc4)n3)cc2[nH]c1=O.Cl (centres unmarked) : 99

melting point reading for CCc1cc2ccc(C(C)(C#N)Cc3cccc(CC#N)c3)cc2[nH]c1=O (centres unmarked) : 150

* * *

SUBJECT_OF_TEST: Human PARP-1 enzyme (Homo sapiens, UniProt P09874)
Construct: purchased Trevigen
Sequence (P09874 whole entry): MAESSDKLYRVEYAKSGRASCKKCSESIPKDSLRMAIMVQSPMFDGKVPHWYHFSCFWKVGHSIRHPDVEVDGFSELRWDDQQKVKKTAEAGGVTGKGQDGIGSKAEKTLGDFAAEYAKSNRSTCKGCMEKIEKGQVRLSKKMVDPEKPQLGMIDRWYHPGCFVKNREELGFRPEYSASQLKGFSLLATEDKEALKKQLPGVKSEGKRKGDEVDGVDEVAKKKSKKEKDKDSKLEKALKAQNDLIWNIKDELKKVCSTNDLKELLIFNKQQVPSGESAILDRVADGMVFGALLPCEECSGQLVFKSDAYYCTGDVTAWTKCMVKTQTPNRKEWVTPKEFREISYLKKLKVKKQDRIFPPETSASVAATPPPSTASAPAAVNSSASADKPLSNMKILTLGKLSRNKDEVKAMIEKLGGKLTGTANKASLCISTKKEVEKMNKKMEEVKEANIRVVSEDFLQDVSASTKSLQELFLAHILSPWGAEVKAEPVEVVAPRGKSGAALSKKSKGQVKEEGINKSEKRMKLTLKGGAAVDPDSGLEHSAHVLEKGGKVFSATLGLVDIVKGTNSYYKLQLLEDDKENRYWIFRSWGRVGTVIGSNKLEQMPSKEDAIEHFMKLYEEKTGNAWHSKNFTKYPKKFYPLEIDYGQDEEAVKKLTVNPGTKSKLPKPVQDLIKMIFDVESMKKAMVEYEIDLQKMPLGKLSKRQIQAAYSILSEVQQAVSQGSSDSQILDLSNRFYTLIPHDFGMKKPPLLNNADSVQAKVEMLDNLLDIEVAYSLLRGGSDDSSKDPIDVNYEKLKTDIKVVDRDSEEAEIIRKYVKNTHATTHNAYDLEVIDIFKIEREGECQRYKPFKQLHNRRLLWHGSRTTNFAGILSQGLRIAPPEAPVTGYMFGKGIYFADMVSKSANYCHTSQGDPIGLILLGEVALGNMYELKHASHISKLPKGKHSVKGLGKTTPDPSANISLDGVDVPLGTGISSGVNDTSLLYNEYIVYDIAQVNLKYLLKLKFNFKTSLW
TEST_PROTOCOL: In vitro Scintillation Proximity Assay (SPA) for PARP-1 inhibitory activity
Format: biochemical
DETAILS: read-out: in vitro SPA assay PARP-1 pIC50 (converted)
Quick rule for you: IC50 under 100 nM gets Met, anything else gets Not met.

Some solved cases for reference:
CCc1cc2ccc(C(C)(C#N)Cc3ncc(C)c(OC)c3C)cc2[nH]c1=O (centres unmarked) [Compound 311]
Not met
C#Cc1cccc(CC(C)(C#N)c2ccc3cc(CC)c(=O)[nH]c3c2)c1 (racemic) [Compound 168]
Not met
CCc1cc2ccc(C(C)(C#N)Cc3cccc(S(F)(F)(F)(F)F)c3)cc2[nH]c1=O (centres unmarked) [Compound 177]
Met
C#Cc1cccc(C[C@](C)(C#N)c2ccc3cc(CC)c(=O)[nH]c3c2)c1 [Compound 2]
Not met
CCOc1cc(OCC)nc(CC(C)(C#N)c2ccc3cc(CC)c(=O)[nH]c3c2)n1 (centres unmarked) [Compound 309]
Not met
CCc1cc2ccc(C(C)(C#N)Cc3cc(F)cc(F)c3)cc2[nH]c1=O (centres unmarked) [Compound 402]
Met

Kindly review the next compound as well.
Ask: is_below(IC50, 100 nM) for CCc1cc2ccc(C(C)(C#N)Cc3cc(C)cc(C)c3)cc2[nH]c1=O (centres unmarked) [Compound 125] ?
Result: Not met

* * *

Documented melting point across a set of compounds
Report only the number, with the unit °C understood.

Recorded results for 5 compounds are shown here.
CCc1cc2ccc(C(C)(C#N)Cc3cccc(S(F)(F)(F)(F)F)c3)cc2[nH]c1=O (centres unmarked)
124
CCc1cc2ccc(C(C)(C#N)Cc3cccc(C#N)n3)cc2[nH]c1=O (single isomer, unassigned) [Compound 207]
133
CCOP(=O)(OCC)c1cccc(CC(C)(C#N)c2ccc3cc(CC)c(=O)[nH]c3c2)c1 (centres unmarked)
80
CCc1cc2ccc(C(C)(C#N)Cc3cccc(C(=O)OC)c3)cc2[nH]c1=O (centres unmarked)
140
CCc1cc2ccc(C(C)(C#N)Cc3ccc(Cl)nc3Cl)cc2[nH]c1=O (centres unmarked)
222

melting point reading for CCc1cc2ccc(C(C)(C#N)CC3COc4ccccc4O3)cc2[nH]c1=O (single isomer, unassigned) [Compound 48] : 241

melting point reading for CCc1cc2ccc(C(C)(C#N)Cc3cccc(-c4ccccc4)c3)cc2[nH]c1=O (centres unmarked) : 192

* * *

SUBJECT_OF_TEST: Human PARP-1 enzyme (Homo sapiens, UniProt P09874)
Construct: purchased Trevigen
TEST_PROTOCOL: In vitro Scintillation Proximity Assay (SPA) for PARP-1 inhibitory activity
Assay type: biochemical
DETAILS: read-out: in vitro SPA assay PARP-1 pIC50 (converted)
READOUT_NAME: IC50 (nM)
Report only the number, with the unit nM understood.

Cc1cc2ccc(C(C)(C#N)C3CCc4ccc(C#N)cc43)cc2[nH]c1=O (centres unmarked)
100
CCc1cc2ccc(C(C)(C#N)CCOc3ccc(Cl)cc3Cl)cc2[nH]c1=O (centres unmarked)
1260
CCc1cc2ccc(C(C)(C#N)Cc3cc(Cl)nc(Cl)c3)cc2[nH]c1=O (centres unmarked)
100
CCc1cc2cc(OCCOC)c(C(C)(C#N)Cc3cccc(C#N)c3)cc2[nH]c1=O (centres unmarked)
158

IC50 reading for CCc1cc2ccc(C(C)(C#N)Cc3cccc(CO)n3)cc2[nH]c1=O (centres unmarked) : 158

IC50 reading for CCc1cc2ccc(C(C)(C#N)CNCc3cccc(C#N)c3)cc2[nH]c1=O (centres unmarked) : 100

IC50 reading for CCc1cc2cc(OC)c(C(C)(C#N)Cc3ccccc3)cc2[nH]c1=O (centres unmarked) : 251

IC50 reading for CCc1cc2ccc(C(C)(C#N)CCOc3ccc(F)cc3)cc2[nH]c1=O (centres unmarked) : 251

* * *

SUBJECT_OF_TEST: Human PARP-1 enzyme (Homo sapiens, UniProt P09874)
Construct: purchased Trevigen
TEST_PROTOCOL: In vitro Scintillation Proximity Assay (SPA) for PARP-1 inhibitory activity
Format: biochemical
DETAILS: read-out: in vitro SPA assay PARP-1 pIC50 (converted)
READOUT_NAME: IC50 (µM)
Report only the number, with the unit µM understood.

Recorded results for 3 compounds are shown here.
Cc1cc2ccc([C@](C)(C#N)Cc3cccc(C#N)c3)cc2[nH]c1=O
1.58
CCc1cc2ccc(C(F)(C#N)Cc3ccccc3)cc2[nH]c1=O (stereo not shown)
0.0631
CCc1cc2ccc(C(C)(C#N)Cc3cccc(C(=O)NCCOC)c3)cc2[nH]c1=O (stereo not shown)
0.501

IC50 reading for CCc1cc2ccc([C@](C)(C#N)Cc3cc(F)cc(F)c3)cc2[nH]c1=O : 0.0316

* * *

Test system: PC3 cells
TEST_PROTOCOL: EB1 Comet (microtubule disruption) assay
Type: cell-based, human
DETAILS: Homo sapiens, PC-3, 1 h, 1 hour treatment, read-out: EB1 pLAC (converted)
Documented log10 minimal effective concentration across a set of compounds
Log10 applied to minimal effective concentration; unit prior to transform: µM.

Recorded results for 4 compounds are shown here.
CCc1c(C)c2ccc(C(C)(C#N)Cc3cccc(C#N)c3)cc2[nH]c1=O (stereo not drawn)
-0.50
Cc1cc2ccc(C(C)(C#N)C3CCc4c(Br)cccc43)cc2[nH]c1=O (stereo not drawn)
-0.50
CCc1cc2ccc(C(C)(C#N)Cc3c4ccccc4nn3C)cc2[nH]c1=O (stereo not drawn)
-0.25
Cc1cc2ccc([C@](C)(C#N)[C@H]3CCc4ccccc43)cc2[nH]c1=O
0.50

log10 minimal effective concentration reading for CCc1cc2ccc(C(C)(C#N)Cc3cc(Cl)cc4c3OCOC4)cc2[nH]c1=O (stereo not drawn) : 0.00

log10 minimal effective concentration reading for CCc1cc2ccc([C@](C)(C#N)[C@H]3CCOc4ccccc43)cc2[nH]c1=O (single isomer, unassigned) : 0.50

log10 minimal effective concentration reading for CCc1cc2ccc(C(C)(C#N)Cc3ccc(Cl)c(C(F)(F)F)c3)cc2[nH]c1=O (stereo not drawn) : 0.00

log10 minimal effective concentration reading for CCc1cc2ccc(C(C)(C#N)Cc3cc(C#N)nc(OC)c3)cc2[nH]c1=O (stereo not drawn) : 0.00

log10 minimal effective concentration reading for CCc1cc2ccc(C(C)(C#N)CCOc3ncc(Br)cn3)cc2[nH]c1=O (stereo not drawn) : 0.00

log10 minimal effective concentration reading for CCc1cc2ccc(C(C)(C#N)Cc3nccc(OC)n3)cc2[nH]c1=O (stereo not drawn) : 0.00

log10 minimal effective concentration reading for CCc1cc2ccc(C(C)(C#N)Cc3cc(F)cc(Cl)c3)cc2[nH]c1=O (stereo not drawn) : -0.50

log10 minimal effective concentration reading for C#Cc1cccc(CC(C)(C#N)c2ccc3cc(CC)c(=O)[nH]c3c2)c1 (racemic) : -1.00

log10 minimal effective concentration reading for CCc1cc2ccc(C(C)(C#N)Cc3c(Cl)cccc3Cl)cc2[nH]c1=O (stereo not drawn) : 0.00

log10 minimal effective concentration reading for Cc1cc2ccc([C@@](C)(C#N)[C@H]3CCc4cc(Br)ccc43)cc2[nH]c1=O : -0.50

log10 minimal effective concentration reading for Cc1cc2ccc(C(C)(C#N)Cc3cccc(OCC4CCOCC4)c3)cc2[nH]c1=O (stereo not drawn) : 0.25
